Target Under Test: T1, full-length human E6AP (C-terminal TEV-6xHis-Avi) (human, UniProt Q05086 1-875, biotin on the Avi tag (BirA biotin-protein ligase) in the SPR experiments)
T1 construct: also called UBE3A; biotin-E6AP
T1 sequence (Q05086 whole entry): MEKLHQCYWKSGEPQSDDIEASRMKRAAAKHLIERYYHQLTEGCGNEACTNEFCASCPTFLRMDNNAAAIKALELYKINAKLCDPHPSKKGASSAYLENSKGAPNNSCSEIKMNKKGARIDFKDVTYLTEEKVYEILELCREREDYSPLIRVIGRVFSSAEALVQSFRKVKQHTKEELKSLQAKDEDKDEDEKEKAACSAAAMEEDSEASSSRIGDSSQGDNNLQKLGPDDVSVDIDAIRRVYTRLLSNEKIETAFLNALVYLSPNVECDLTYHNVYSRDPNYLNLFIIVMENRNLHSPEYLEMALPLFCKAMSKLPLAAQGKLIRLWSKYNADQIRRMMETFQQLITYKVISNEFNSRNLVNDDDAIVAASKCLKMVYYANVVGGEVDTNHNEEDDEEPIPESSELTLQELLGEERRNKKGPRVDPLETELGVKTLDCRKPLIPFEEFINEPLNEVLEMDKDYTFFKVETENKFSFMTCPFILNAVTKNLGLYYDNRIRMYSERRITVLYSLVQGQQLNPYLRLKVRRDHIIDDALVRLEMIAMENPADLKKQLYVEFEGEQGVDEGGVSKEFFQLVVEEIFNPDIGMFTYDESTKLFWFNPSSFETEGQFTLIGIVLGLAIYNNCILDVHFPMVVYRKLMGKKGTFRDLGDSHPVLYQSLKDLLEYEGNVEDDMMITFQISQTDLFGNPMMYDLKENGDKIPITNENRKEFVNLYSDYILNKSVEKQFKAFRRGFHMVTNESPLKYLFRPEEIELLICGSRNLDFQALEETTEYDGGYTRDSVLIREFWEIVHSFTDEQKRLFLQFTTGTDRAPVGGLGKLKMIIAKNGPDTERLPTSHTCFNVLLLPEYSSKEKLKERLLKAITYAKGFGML
Assay Summary: SPR
Experimental Conditions: both partners purified
Measure: Kd (nM)
Note: unit nM is implicit; provide only the numeric part.

Binder	Measure	Uom	Numeric Readout
MBP-16E6(4C4S) R84E (natural protein, Mutant of m2; source: E. coli BL21(DE3), purified (MBPTrap, SEC); not shown: MBP, N-terminal, kept) MHQKRTAMFQDPQERPRKLPQLCTELQTTIHDIILECVYCKQQLLRREVYDFAFRDLCIVYRDGNPYAVCDKCLKFYSKISEYEHYSYSLYGTTLEQQYNKPLSDLLIRCINCQKPLSPEEKQRHLDKKQRFHNIRGRWTGRCMSCSRSSRTRRETQL	Kd	nM	195
MBP-16E6(4C4S) Y77A (natural protein, Mutant of m2; source: E. coli BL21(DE3), purified (MBPTrap, SEC); not shown: MBP, N-terminal, kept) MHQKRTAMFQDPQERPRKLPQLCTELQTTIHDIILECVYCKQQLLRREVYDFAFRDLCIVYRDGNPYAVCDKCLKFASKISEYRHYSYSLYGTTLEQQYNKPLSDLLIRCINCQKPLSPEEKQRHLDKKQRFHNIRGRWTGRCMSCSRSSRTRRETQL	Kd	nM	0.742

Attention now turns to another entry.
Item under review: MBP-16E6(4C4S) F76A (natural protein, Mutant of m2; source: E. coli BL21(DE3), purified (MBPTrap, SEC); not shown: MBP, N-terminal, kept) MHQKRTAMFQDPQERPRKLPQLCTELQTTIHDIILECVYCKQQLLRREVYDFAFRDLCIVYRDGNPYAVCDKCLKAYSKISEYRHYSYSLYGTTLEQQYNKPLSDLLIRCINCQKPLSPEEKQRHLDKKQRFHNIRGRWTGRCMSCSRSSRTRRETQL . Reported Kd?
8.5

Each recorded value in this set is attributed to paper PMC10902388.
